Reference for the values: patent EP4786492A1

Biological target: human DLL4 protein (Acro, Cat. No. DL4-H5227) (human) (UniProt Q9NR61)
Sequence (Q9NR61 27-524 limits assumed): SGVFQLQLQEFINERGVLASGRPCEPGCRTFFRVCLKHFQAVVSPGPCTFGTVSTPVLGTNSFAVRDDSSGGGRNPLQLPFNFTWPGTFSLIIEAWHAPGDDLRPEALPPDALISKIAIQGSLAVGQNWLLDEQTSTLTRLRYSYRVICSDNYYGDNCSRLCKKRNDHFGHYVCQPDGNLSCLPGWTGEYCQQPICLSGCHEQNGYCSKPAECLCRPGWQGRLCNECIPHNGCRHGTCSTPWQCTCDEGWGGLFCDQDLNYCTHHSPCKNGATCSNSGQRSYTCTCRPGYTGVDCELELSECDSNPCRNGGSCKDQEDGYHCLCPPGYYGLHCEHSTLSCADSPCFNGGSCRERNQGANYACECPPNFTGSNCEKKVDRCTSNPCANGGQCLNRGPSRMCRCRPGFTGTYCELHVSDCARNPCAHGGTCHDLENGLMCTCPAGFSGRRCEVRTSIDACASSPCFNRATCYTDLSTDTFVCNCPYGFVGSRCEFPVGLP
Experiment: ELISA, coated hDLL4; maximum over 0.1, 1, 10, 100 nM antibody
Listed next: entries and their corresponding Emax of OD450 nm binding value.
property name: Emax of OD450 nm binding value (OD450 nm)

[[record]]
binder = "Hab015VL4VH5a-hFc (scFv, part only; not given: VL-VH linker and human IgG1 Fc, V domains shown, not shown: another chain or arm of the molecule; a dimerising Fc or GST; small tags and cut ends) VL: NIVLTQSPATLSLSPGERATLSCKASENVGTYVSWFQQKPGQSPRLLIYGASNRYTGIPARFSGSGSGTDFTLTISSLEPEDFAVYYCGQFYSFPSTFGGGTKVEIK VH: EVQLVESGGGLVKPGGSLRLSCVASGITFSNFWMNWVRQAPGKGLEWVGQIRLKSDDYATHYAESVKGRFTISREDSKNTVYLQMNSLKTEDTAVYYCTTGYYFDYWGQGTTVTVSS"
quantity_unit = "OD450 nm"
reported = 0.71

[[record]]
binder = "BI3 (antibody, human IgG1, kappa, V domains shown) VH: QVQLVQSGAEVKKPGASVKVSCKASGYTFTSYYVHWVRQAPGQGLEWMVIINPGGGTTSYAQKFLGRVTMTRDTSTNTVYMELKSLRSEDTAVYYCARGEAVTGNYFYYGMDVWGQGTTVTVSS VL: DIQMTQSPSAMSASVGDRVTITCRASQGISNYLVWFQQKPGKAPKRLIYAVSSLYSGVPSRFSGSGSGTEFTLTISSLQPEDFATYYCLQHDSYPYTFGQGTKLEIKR"
quantity_unit = "OD450 nm"
reported = 0.06

[[record]]
binder = "Hab015VL4VH1b-hFc (scFv, part only; not given: VL-VH linker and human IgG1 Fc, V domains shown, not shown: another chain or arm of the molecule; a dimerising Fc or GST; small tags and cut ends) VL: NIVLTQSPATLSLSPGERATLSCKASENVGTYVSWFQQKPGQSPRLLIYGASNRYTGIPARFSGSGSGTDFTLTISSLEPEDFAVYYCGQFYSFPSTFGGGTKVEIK VH: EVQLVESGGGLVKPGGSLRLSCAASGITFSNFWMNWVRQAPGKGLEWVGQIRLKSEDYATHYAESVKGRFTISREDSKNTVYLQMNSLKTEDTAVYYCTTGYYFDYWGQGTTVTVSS"
quantity_unit = "OD450 nm"
reported = 0.67

